biological target: cloned human dopamine D3 receptors (Homo sapiens, UniProt P35462); construct: expressed in transfected cells; membrane homogenate; assay: [N-Methyl-3H]Spiroperidol binding to cloned human dopamine D3 receptors; conditions: read-out: D3 Ki
Sequence (P35462 whole entry): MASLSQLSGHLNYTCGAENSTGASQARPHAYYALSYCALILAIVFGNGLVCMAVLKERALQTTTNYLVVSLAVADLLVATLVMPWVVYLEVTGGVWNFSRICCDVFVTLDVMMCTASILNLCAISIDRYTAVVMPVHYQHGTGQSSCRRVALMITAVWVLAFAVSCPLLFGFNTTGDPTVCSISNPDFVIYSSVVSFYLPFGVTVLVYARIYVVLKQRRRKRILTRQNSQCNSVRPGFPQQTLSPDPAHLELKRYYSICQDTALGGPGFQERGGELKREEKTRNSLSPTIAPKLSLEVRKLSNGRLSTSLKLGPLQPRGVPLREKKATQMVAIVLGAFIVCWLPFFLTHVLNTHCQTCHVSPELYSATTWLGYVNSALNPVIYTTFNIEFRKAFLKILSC
pKi: −log10 of the molar value.
Quick rule for you: pKi at 8 or higher means Y, lower means N.

compound="CN(C)CCN1CCN(C(=O)[C@@H]2C[C@H]2CN2CCN(c3csc4cc(C(F)(F)F)ccc34)CC2)CC1 [compound 832580]" assayed_system="cloned human dopamine D3 receptors (Homo sapiens, UniProt P35462)" assigned_label=N
compound="O=C(C1CC1CN1CCC(c2noc3ccsc23)CC1)N1CCN(S(=O)(=O)Cc2ccccc2)CC1 (racemic) [compound 831837]" assayed_system="cloned human dopamine D3 receptors (Homo sapiens, UniProt P35462)" assigned_label=N
compound="O=C(NCC1CCNCC1)[C@@H]1C[C@H]1CN1CCC(c2nn(CC(F)(F)F)c3ccsc23)CC1 [A002440435A]" assayed_system="cloned human dopamine D3 receptors (Homo sapiens, UniProt P35462)" assigned_label=N
compound="CC(C)N1CCN(C(=O)[C@@H]2C[C@H]2CN2CCC(c3noc4ccsc34)CC2)CC1 [compound 833127]" assayed_system="cloned human dopamine D3 receptors (Homo sapiens, UniProt P35462)" assigned_label=N
compound="COc1c(F)ccc2c(C3CCN(C[C@@H]4C[C@H]4C(=O)NCCCn4ccnc4)CC3)noc12 [compound 831309]" assayed_system="cloned human dopamine D3 receptors (Homo sapiens, UniProt P35462)" assigned_label=N
compound="O=C([C@@H]1C[C@H]1CN1CCN(c2csc3cc(C(F)(F)F)ccc23)CC1)N1CCCC(Cn2ccnc2)C1 (mixture of isomers) [compound 832268]" assayed_system="cloned human dopamine D3 receptors (Homo sapiens, UniProt P35462)" assigned_label=Y
compound="CCCc1cc(N2CCN(CC3CC3C(=O)NC3CCC(CC)CC3)CC2)nc(C(C)(C)C)n1 (racemic) [compound 817274]" assayed_system="cloned human dopamine D3 receptors (Homo sapiens, UniProt P35462)" assigned_label=Y
compound="O=C(NCCCn1ccnc1)[C@@H]1C[C@H]1CN1CCC(c2noc3ccc(C(F)(F)F)cc23)CC1 [A002200837]" assayed_system="cloned human dopamine D3 receptors (Homo sapiens, UniProt P35462)" assigned_label=Y
compound="O=C([C@@H]1C[C@H]1CN1CCC(c2csc3cc(C(F)(F)F)ccc23)CC1)N1CCC[C@@H](Cn2ccnc2)C1 [A002609935]" assayed_system="cloned human dopamine D3 receptors (Homo sapiens, UniProt P35462)" assigned_label=Y
compound="O=C(NC1CCN(CC2CCCCC2)CC1)[C@@H]1C[C@H]1CN1CCC(c2noc3ccsc23)CC1 [compound 832733]" assayed_system="cloned human dopamine D3 receptors (Homo sapiens, UniProt P35462)" assigned_label=Y
compound="COc1ccc2c(c1)c(N1CCN(C[C@@H]3C[C@H]3C(=O)NCCc3ccc(F)cc3)CC1)nn2C [compound 833629]" assayed_system="cloned human dopamine D3 receptors (Homo sapiens, UniProt P35462)" assigned_label=Y
compound="O=C(NCCN1CCNC1=O)[C@@H]1C[C@H]1CN1CCN(c2csc3cc(C(F)(F)F)ccc23)CC1 [compound 832498]" assayed_system="cloned human dopamine D3 receptors (Homo sapiens, UniProt P35462)" assigned_label=N
compound="O=C([C@@H]1C[C@H]1CN1CCN(c2csc3cc(C(F)(F)F)ccc23)CC1)N1CCC(N2CCCC2)CC1 [compound 832510]" assayed_system="cloned human dopamine D3 receptors (Homo sapiens, UniProt P35462)" assigned_label=N
